- Tested on: corn rust (Puccinia sorghi)
- protocol: Greenhouse pot test, corn rust
- Type: in vivo
- particulars: Puccinia sorghi, 168 h, 3.1250 mg/L, read-out: Control effect (%) Corn rust
parameter: pest or weed control at 3.125 µg/mL (%)
Report only the number, with the unit % understood.

Answered examples (3):
Cn1cc(C(=O)Nc2ccccc2Oc2ccc(C(F)(F)F)cc2Cl)c(C(F)F)n1 = 98
Cn1cc(C(=O)Nc2ccccc2Oc2ccc(C(F)(F)F)cc2I)c(C(F)F)n1 = 90
Cn1cc(C(=O)Nc2ccccc2Oc2ccc(C(F)(F)F)cc2C(F)(F)F)c(C(F)F)n1 = 100

Field: next compound
pest or weed control at 3.125 µg/mL recorded for this compound, "Cn1cc(C(=O)Nc2ccccc2Oc2ccc(Cl)cc2Cl)c(C(F)F)n1" , is 60
